- System: HT1080
- test_description: In vitro cytotoxicity, microculture tetrazolium assay, HT1080
- Format: cell-based
- particulars: Homo sapiens, HT-1080; HT1080 fibrosarcoma, 48 hours exposure
recorded_endpoint: IC50 (nM)
Kindly answer with a numeric value in nM, unit omitted.

Problem: Requested read-out IC50, target or system HT1080, entry COc1cc([C@@H]2c3cc4c(cc3[C@@H](NC3=CC(=O)N(C)C3=O)[C@H]3COC(=O)[C@H]23)OCO4)cc(OC)c1O
Result: 75.8

###

- Test system: L1210
- test_description: In vitro cytotoxicity, microculture tetrazolium assay, L1210
- Assay type: cell-based
- particulars: Mus musculus; L1210 murine leukemia, 48 hours exposure
- Experimental: Six cell lines were used: • 1 murine leukemia: L1210 • 1 human epidermal carcinoma: KB-3-1 • 1 human pulmonary carcinoma, not small cell: A549 • 1 melanoma: A375 • 1 neuroblastoma: SK-N-MC • 1 fibrosarcoma: HT1080 The cells are cultivated in complete RPMI 1640 culture medium containing 10% of fetal calf serum, 2 mM of glutamine, 50 U/ml of penicillin, 50 μg/ml of streptomycin and 10 mM of Hepes, pH: 7.4. […]
recorded_endpoint: IC50 (nM)
Kindly answer with a numeric value in nM, unit omitted.

Problem: Give its IC50 value. Item: COc1cc([C@@H]2c3cc4c(cc3[C@@H](NC3=CC(=O)N(C)C3=O)[C@H]3COC(=O)[C@H]23)OCO4)cc(OC)c1O
Result: 54
